TEST METHOD NOTES: Acute toxicity study in mice
Assay type: in vivo
TEST SETTINGS: male, CD1, mouse, in vivo, ip, intraperitoneal (i.p.) single injection, read-out: 50% lethal dose (LD50)
READOUT LABEL: LD50 at 7 days

(Q) I have this compound here, Cc1oc(C)c(S(N)(=O)=O)c1C(=O)O , and I need its recorded LD50 at 7 days.
(A) > 1000 mg/kg

====

EXPERIMENTAL SYSTEM: VIM-2 (Escherichia coli)
Sorting guide: entries reporting Ki beneath 2000 nM go in the met pile, the rest go in the not met pile.

(Q) I wonder whether Cc1oc(C)c(S(N)(=O)=O)c1C(=O)O has Ki below 2000 nM. Can you tell?
(A) not met

(Q) I wonder whether Cc1c(C(=O)O)c(S(N)(=O)=O)c(C)n1C1CC1 has Ki below 2000 nM. Can you tell?
(A) met

(Q) I wonder whether CCc1oc(CC)c(S(N)(=O)=O)c1C(=O)O has Ki below 2000 nM. Can you tell?
(A) met

(Q) I wonder whether NS(=O)(=O)c1sccc1C(=O)O has Ki below 2000 nM. Can you tell?
(A) not met

(Q) I wonder whether Cc1c(C(=O)O)c(S(N)(=O)=O)c(C)n1-c1ccccc1 has Ki below 2000 nM. Can you tell?
(A) not met

(Q) I wonder whether CCCc1oc(CCC)c(S(N)(=O)=O)c1C(=O)O has Ki below 2000 nM. Can you tell?
(A) met

(Q) I wonder whether NS(=O)(=O)c1c(C2CCCC2)oc(C2CCCC2)c1C(=O)O has Ki below 2000 nM. Can you tell?
(A) met

(Q) I wonder whether Cc1c(C(=O)O)c(S(N)(=O)=O)c(C)n1C has Ki below 2000 nM. Can you tell?
(A) met

(Q) I wonder whether NS(=O)(=O)c1sc(Cl)cc1C(=O)O has Ki below 2000 nM. Can you tell?
(A) not met

(Q) I wonder whether CCc1c(C(=O)O)c(S(N)(=O)=O)c(CC)n1C has Ki below 2000 nM. Can you tell?
(A) met
